# Stated conditions: buffer; pH 7.4; 200.0 µM

Compound: COc1ccccc1OCCCC(=O)NC(C)c1ccccc1 (centres undefined)
solubility kinetic: > 47 µg/mL

Compound: Cc1ccc(C(=O)NCCC(=O)N2CCOCC2)cc1
solubility kinetic: > 41.5 µg/mL

Compound: NC(=O)c1ccsc1NC(=O)CSc1nncs1
solubility kinetic: > 45.1 µg/mL

Compound: COCC(=O)Nc1ccccc1-c1ccccc1
solubility kinetic: > 36.2 µg/mL

###

Entries annotated with measured solubility kinetic
# Stated conditions: buffer; pH 7.4; 200.0 µM
Endpoint name: solubility kinetic

Structure notation: CCOc1ccc(C(=O)N2CCN(c3ccccn3)CC2)cc1OCC
Endpoint name: solubility kinetic
Readout value: > 53.3 µg/mL
//
Structure notation: O=C(O)c1ccccc1NCc1cccnc1
Endpoint name: solubility kinetic
Readout value: > 34.2 µg/mL
//
Structure notation: COc1cc(C(=O)NCCCc2ccccc2)cc(OC)c1OC
Endpoint name: solubility kinetic
Readout value: > 49.4 µg/mL
//
Structure notation: Cc1ccc(C(=O)Cn2c(C(=O)O)cc3ccccc32)cc1
Endpoint name: solubility kinetic
Readout value: > 44 µg/mL
//
Structure notation: O=C(c1ccccc1F)N1CCN(c2ccccn2)CC1
Endpoint name: solubility kinetic
Readout value: > 42.8 µg/mL
//
Structure notation: CCCCn1c(N)c(N(CC)C(=O)CCNC(=O)c2ccc(Cl)cc2)c(=O)[nH]c1=O
Endpoint name: solubility kinetic
Readout value: > 65.4 µg/mL
